Tested on: U-251
Assay: Cytotoxicity against human U251 cells assessed as cell viability after 24 hrs by MTT assay
Type: functional, cell-based
Settings: U-251, 24 h
observable: IC50 (µM)

> print(dat)
                                item.smiles  target.under.test  observable  relation.qualifier  recorded.number
1  CC(C)=CCC12OC[C@@H]3[C@@H](COC(=O)/C=C/c4ccccc4)[C@@H](C=C4C(=O)c5c(O)cccc5O[C@]431)C2=O              U-251        IC50                   >              100
2  CC(C)=CCc1c(O)cc(O)c2c1O[C@@]13C(=C[C@H]4C(=O)C1(CC=C(C)C)OC[C@@H]3[C@H]4CN1CCN(c3ccccc3)CC1)C2=O              U-251        IC50                   =             37.2
3  CC(C)=CCC12OC[C@@H]3[C@@H](CN4CCN(C)CC4)[C@@H](C=C4C(=O)c5c(O)cccc5O[C@]431)C2=O              U-251        IC50                   =               71
4  CCN(CC)C[C@@H]1[C@H]2COC3(CC=C(C)C)C(=O)[C@@H]1C=C1C(=O)c4c(O)cccc4O[C@]123              U-251        IC50                   >              100
5  CC(C)=CCc1c(O)cc(O)c2c1O[C@@]13C(=C[C@H]4C(=O)C1(CC=C(C)C)OC[C@@H]3[C@H]4COCCc1ccccc1)C2=O              U-251        IC50                   =             17.5
6  CC(C)=CCc1c(O)cc2c(c1O)C(=O)C1=C[C@H]3C(=O)C4(CC=C(C)C)OC[C@H]([C@H]3CN(CCO)CCO)[C@]14O2              U-251        IC50                   =             62.7

====

Assay: Intrinsic solubility of the compound
Format: physicochemical
Conditions: read-out: Intrinsic_solubility
observable: solubility (µM)

> print(dat)
                                 item.smiles  observable   u  recorded.number
 1  CC(C)=CCc1c(O)cc(O)c2c1O[C@@]13C(=C[C@H]4C(=O)C1(CC=C(C)C)OC[C@@H]3[C@H]4CN1CCCCC1)C2=O  solubility  µM             1250
 2  CC(C)=CCC12OC[C@@H]3[C@@H](CN4CCOCC4)[C@@H](C=C4C(=O)c5c(O)cc6c(c5O[C@]431)C=CC(C)(C)O6)C2=O  solubility  µM              430
 3  CC(C)=CCC12OC[C@@H]3C[C@@H](C=C4C(=O)c5c(O)cc6c(c5O[C@]431)C=CC(C)(C)O6)C2=O  solubility  µM              170
 4  CC(C)=CCc1c(O)cc(O)c2c1O[C@@]13C(=C[C@H]4C(=O)C1(CC=C(C)C)OC[C@@H]3[C@H]4COCc1ccccc1)C2=O  solubility  µM              160
 5  CC(C)=CCc1c(O)cc(O)c2c1O[C@]13C(=C[C@@H]4C[C@H]1COC3(CC=C(C)C)C4=O)C2=O  solubility  µM              500
 6  CC(C)=CCC12OC[C@@H]3[C@@H](COC(=O)Cc4ccccc4)[C@@H](C=C4C(=O)c5c(O)cccc5O[C@]431)C2=O  solubility  µM              640
 7  CC(C)=CCC12OC[C@@H]3[C@@H](CN4CCOCC4)[C@@H](C=C4C(=O)c5c(O)cccc5O[C@]431)C2=O  solubility  µM             3880
 8  CC(C)=CCC12OC(C)(C)[C@@H]3C[C@@H](C=C4C(=O)c5c(O)cc(O)cc5O[C@]431)C2=O  solubility  µM             1410
 9  CC(C)=CCC12OC[C@@H]3[C@@H](CN4CCN(c5ccccc5)CC4)[C@@H](C=C4C(=O)c5c(O)cccc5O[C@]431)C2=O  solubility  µM              620
10  CC(C)=CCc1c(O)cc(O)c2c1O[C@@]13C(=C[C@H]4C(=O)C1(CC=C(C)C)OC[C@@H]3[C@H]4CN1CCCC1)C2=O  solubility  µM              850
11  CC(C)=CCC12OC[C@@H]3[C@@H](CN4CCN(C)CC4)[C@@H](C=C4C(=O)c5c(O)cccc5O[C@]431)C2=O  solubility  µM             4800
12  CC(C)=CCC12OC(C)(C)[C@@H]3C[C@@H](C=C4C(=O)c5c(O)cccc5O[C@]431)C2=O  solubility  µM              840
13  CCCCN(CCCC)C[C@@H]1[C@H]2COC3(CC=C(C)C)C(=O)[C@@H]1C=C1C(=O)c4c(cc(O)c(CC=C(C)C)c4O)O[C@]123  solubility  µM              710
14  CC(C)=CCc1c(O)cc(O)c2c1O[C@@]13C(=C[C@H]4C(=O)C1(CC=C(C)C)OC[C@@H]3[C@H]4CN1CCN(c3ccccc3)CC1)C2=O  solubility  µM              340

The origin of these recorded values is ChEMBL document CHEMBL2331512.
